Source listed as ChEMBL document CHEMBL4406803.

- assayTarget: 17-beta-hydroxysteroid dehydrogenase type 3 (Homo sapiens, UniProt P37058)
- Sequence (P37058 whole entry): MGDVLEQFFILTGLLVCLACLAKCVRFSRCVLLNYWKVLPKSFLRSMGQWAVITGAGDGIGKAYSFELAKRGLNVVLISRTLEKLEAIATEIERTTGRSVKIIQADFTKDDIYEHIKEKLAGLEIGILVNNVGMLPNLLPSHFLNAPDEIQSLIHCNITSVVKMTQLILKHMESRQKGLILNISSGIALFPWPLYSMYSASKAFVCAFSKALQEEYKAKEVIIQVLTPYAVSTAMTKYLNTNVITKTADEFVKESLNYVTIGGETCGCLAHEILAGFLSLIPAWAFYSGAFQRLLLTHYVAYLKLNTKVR
- assayExplanation: Inhibition of 17beta-HSD3 (unknown origin) expressed in human LNCAP cells assessed as reduction in [14C]-testosterone formation from [14C]-4-androstene-3,17-dione measured after 1 hr
measuredMetric: IC50 (nM)

compound="CC1CN(S(=O)(=O)c2ccccc2C(F)(F)F)C(C)CN1CCc1ccc2c(c1)CC[C@@H]1[C@@H]2CC[C@]2(C)C(=O)CC[C@@H]12 (stereo partly drawn)" assaytarget="17-beta-hydroxysteroid dehydrogenase type 3 (Homo sapiens, UniProt P37058)" recordedmeasurement=130

P = CC1CN(S(=O)(=O)c2ccccc2C(F)(F)F)C(C)CN1C(=O)c1ccc2c(c1)CC[C@@H]1[C@@H]2CC[C@]2(C)C(=O)CC[C@@H]12 (stereo partly drawn)
Q = CC1CN(S(=O)(=O)c2ccccc2C(F)(F)F)C(C)CN1Cc1cc2c(cc1O)CC[C@@H]1[C@@H]2CC[C@]2(C)C(=O)CC[C@@H]12 (stereo partly drawn)
Which of these two has the smaller recorded IC50: P or Q ? Please identify the chosen entry by its label.
P
(P: 100 nM, Q: 170 nM)
